molecular target: Thymidylate synthase (Homo sapiens); assay: Inhibition of recombinant human thymidylate synthase (TS)
Sequence (P04818 whole entry): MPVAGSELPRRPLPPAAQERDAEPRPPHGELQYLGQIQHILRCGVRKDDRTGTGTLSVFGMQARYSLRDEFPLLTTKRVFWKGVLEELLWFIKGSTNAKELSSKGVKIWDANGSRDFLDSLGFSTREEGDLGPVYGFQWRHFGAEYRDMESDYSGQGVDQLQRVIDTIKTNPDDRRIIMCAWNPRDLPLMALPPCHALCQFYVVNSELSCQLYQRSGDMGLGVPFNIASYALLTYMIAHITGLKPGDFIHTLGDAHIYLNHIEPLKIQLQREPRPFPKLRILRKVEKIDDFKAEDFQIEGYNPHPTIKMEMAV
measuredProperty: IC50 (µM)

| compound | measuredProperty | val |
| --- | --- | --- |
| CCC(Cc1coc2nc(N)cc(N)c12)c1ccc(C(=O)NC(CCC(=O)O)C(=O)O)cc1 (stereo unspecified) | IC50 | 220 |

---

Biological target: Dihydrofolate reductase (Homo sapiens, UniProt P00374)
Sequence (P00374 whole entry): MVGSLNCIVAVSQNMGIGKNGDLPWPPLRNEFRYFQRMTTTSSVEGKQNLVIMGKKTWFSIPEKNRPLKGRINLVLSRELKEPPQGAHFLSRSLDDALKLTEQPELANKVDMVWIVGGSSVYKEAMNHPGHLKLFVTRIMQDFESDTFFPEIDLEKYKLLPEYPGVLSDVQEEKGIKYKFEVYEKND
measuredProperty: IC50

| compound | measuredProperty | val |
| --- | --- | --- |
| CCC(Cc1coc2nc(N)cc(N)c12)c1ccc(C(=O)NC(CCC(=O)O)C(=O)O)cc1 (stereo unspecified) | IC50 | 0.22 µM |
